All values here come from paper PMC12901311.

biological target: Hexim1 NBLA-S158EE (human, UniProt O94992 1-157+=EE+159-253, internal_change); assay: ITC; N=0.74; ITC: 20 mM HEPES pH 7.5, 150 mM KCl, 1 mM TCEP, 295 K; NMR: 50 mM Na phosphate pH 6.2, 150 mM KCl, 0.02% NaN3, 5% D2O, 298 K; EMSA: binding buffer (20 mM HEPES); details: protein: recombinant; hairpin with U40U41 and U63 bulges
Sequence (O94992 other isoform, or with tags, fused parts or gaps): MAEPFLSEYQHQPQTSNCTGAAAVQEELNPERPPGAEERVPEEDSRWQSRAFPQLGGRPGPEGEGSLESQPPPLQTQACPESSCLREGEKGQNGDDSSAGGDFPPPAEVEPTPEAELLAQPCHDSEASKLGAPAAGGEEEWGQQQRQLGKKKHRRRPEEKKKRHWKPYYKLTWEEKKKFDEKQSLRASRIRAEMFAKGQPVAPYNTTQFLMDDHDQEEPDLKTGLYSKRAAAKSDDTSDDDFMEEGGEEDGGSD
reported.metric: Kd (nM)
Give the quantity in nM, number only.

Task item: Can you look up the measured Kd of GGCCAUUGAUCGCCUUCGGGCUGAUCUGGCC (structured_RNA) [7SK SL1-dI] for me?
Reply: 727
